FYI, the data here is from patent US7503965B2.

# protocol.details: solubility in water (ammonia alkali) by filter paper spot
# Assay type: physicochemical
# condition.context: aqueous buffer
endpoint.name: solubility

>  <cpd.smiles>
Nc1c(N=Nc2ccc3c(O)c(N=Nc4ccc(N=Nc5c(C(=O)O)nn(-c6cc(C(=O)O)cc(C(=O)O)c6)c5O)c(S(=O)(=O)O)c4)c(S(=O)(=O)O)cc3c2S(=O)(=O)O)cc(S(=O)(=O)O)c2cc(S(=O)(=O)O)c(N=Nc3ccc([N+](=O)[O-])cc3S(=O)(=O)O)c(O)c12

>  <endpoint.name>
solubility

>  <result>
≥ 100 mg/mL

$$$$
>  <cpd.smiles>
Nc1c(N=Nc2ccc3c(O)c(N=Nc4cc(Cl)c(N=Nc5c(C(=O)O)nn(-c6ccc(S(=O)(=O)O)cc6)c5O)c(S(=O)(=O)O)c4)c(S(=O)(=O)O)cc3c2S(=O)(=O)O)cc(S(=O)(=O)O)c2cc(S(=O)(=O)O)c(N=Nc3ccc([N+](=O)[O-])cc3S(=O)(=O)O)c(O)c12

>  <endpoint.name>
solubility

>  <result>
≥ 100 mg/mL

$$$$
>  <cpd.smiles>
Nc1c(N=Nc2ccc3c(O)c(N=Nc4ccc(N=Nc5c(C(=O)O)nn(-c6ccc(S(=O)(=O)O)cc6)c5O)c(S(=O)(=O)O)c4)c(S(=O)(=O)O)cc3c2S(=O)(=O)O)cc(S(=O)(=O)O)c2cc(S(=O)(=O)O)c(N=Nc3ccc(S(=O)(=O)O)cc3[N+](=O)[O-])c(O)c12

>  <endpoint.name>
solubility

>  <result>
≥ 100 mg/mL

$$$$
